Reference source for all entries: patent US20130165471A1

// S. aureus ATCC 29213 MIC records
Enter your answer as a number in µg/mL; do not include the unit.

Report MIC for COc1c(N2CC[C@@H](CNC(C)=O)C2)c(F)cc2c(=O)c3c(n(C4CC4)c12)SCC3=O [Compound 14]
32

Report MIC for COc1c(N2CCC(CN)CC2)c(F)cc2c(=O)c3c(O)c(C(C)=O)sc3n(C3CC3)c12 [Compound 9]
0.25

Report MIC for COc1c(N2CC[C@@H](CNS(=O)(=O)c3cc(F)ccc3C)C2)c(F)cc2c(=O)c3c(O)c(C(C)=O)sc3n(C3CC3)c12 [Compound 16]
32

Report MIC for COc1c(N2CC[C@@H]([C@H](C)N)C2)c(F)cc2c(=O)c3c(n(C4CC4)c12)SCC3=O [Compound 20]
4

Report MIC for COc1c(N2CC[C@@H](CNC(=O)CN)C2)c(F)cc2c(=O)c3c(O)c(C(C)=O)sc3n(C3CC3)c12 [Compound 15]
0.5

Others:
Report MIC for COc1c(N2CCCC(=C(F)CN)C2)c(F)cc2c(=O)c3c(O)c(C(C)=O)sc3n(C3CC3)c12 [Compound 6]
0.25

* * *

// S. aureus ATCC 29213 MIC records

Study these solved cases before continuing.
Fill: MIC (S. aureus ATCC 29213) for this compound "COc1c(N2CC[C@@H]([C@@H](C)N)C2)c(F)cc2c(=O)c3c(O)c(C(C)=O)sc3n(C3CC3)c12"
0.13 µg/mL

Fill: MIC (S. aureus ATCC 29213) for this compound "COc1c(N2CC[C@H](CN)C2)c(F)cc2c(=O)c3c(O)c(C(C)=O)sc3n(C3CC3)c12"
0.13 µg/mL

// switching to the query compound
Fill: MIC (S. aureus ATCC 29213) for this compound "COc1c(N2CC[C@H](NC(C)=O)C2)c(F)cc2c(=O)c3c(O)c(C(C)=O)sc3n(C3CC3)c12"
0.25 µg/mL

* * *

// S. aureus ATCC 29213 log10 of MIC records
Please note: log10 values; quantity MIC; unit µg/mL.

Study these solved cases before continuing.
Fill: log10 of MIC (S. aureus ATCC 29213) for this compound "COc1c(N2CC[C@@H]([C@H](C)NC(C)=O)C2)c(F)cc2c(=O)c3c(O)c(C(C)=O)sc3n(C3CC3)c12"
-0.60

Fill: log10 of MIC (S. aureus ATCC 29213) for this compound "COc1c(N2CC[C@H](N)C2)c(F)cc2c(=O)c3c(O)c(C(C)=O)sc3n(C3CC3)c12"
-0.89

Fill: log10 of MIC (S. aureus ATCC 29213) for this compound "COc1c(N2CC[C@@H](CNC(C)=O)C2)c(F)cc2c(=O)c3c(O)c(C(C)=O)sc3n(C3CC3)c12"
-0.89

Fill: log10 of MIC (S. aureus ATCC 29213) for this compound "COc1c(N2CC[C@@H](CN)C2)c(F)cc2c(=O)c3c(O)csc3n(C3CC3)c12"
0.60

Fill: log10 of MIC (S. aureus ATCC 29213) for this compound COc1c(N2CCCC(CN)C2)c(F)cc2c(=O)c3c(O)c(C(N)=O)sc3n(C3CC3)c12 (centres unmarked)
-0.30

Others:
Fill: log10 of MIC (S. aureus ATCC 29213) for this compound "COc1c(N2CC[C@@H]([C@H](C)N)C2)c(F)cc2c(=O)c3c(O)c(C(C)=O)sc3n(C3CC3)c12"
-1.52
